tested on: U87.CD4.CCR5/CXCR4 cells; experiment: Cellular toxicity (Cell Counting Kit-8); format: cell-based, Human; conditions: CC50 / median IC50
QUANTITY KIND: Therapeutic Index (CC50/IC50)

As a guide, the following entries are already answered.
**Q:** # get_value(readout='Therapeutic Index (CC50/IC50)', item= COc1ccc(-c2noc(N)n2)c2[nH]cc(C(=O)C(=O)NC3C4CN(C(=O)c5ccccc5)CC43)c12 (stereo not drawn) )
**A:** 1344.71

**Q:** Quick one: Therapeutic Index (CC50/IC50) for COc1cnc(-n2cnc(C)n2)c2[nH]cc(C(=O)C(=O)NC3C4CN(C(=O)c5ccccc5)CC43)c12 (stereo not drawn) ?
**A:** 1291.21

**Q:** What does the record list as Therapeutic Index (CC50/IC50) for CNC(=O)c1ncc(OC)c2c(C(=O)C(=O)NC3C4CN(C(=O)c5ccccc5)CC43)c[nH]c12 (stereo not drawn) ?
**A:** 7.31

**Q:** Please look up its Therapeutic Index (CC50/IC50): Nc1nc(-c2ccc(F)c3c(C(=O)C(=O)NC4C5CN(C(=O)c6ccccc6)CC54)c[nH]c23)no1 (stereo not drawn)
**A:** 75.85

**Q:** # query: Therapeutic Index (CC50/IC50) of entry C=C(C(=O)NC1C2CN(C(=O)c3ccccc3)CC21)n1ccc2c(-n3cnc(C)n3)nc3ccnn3c21 (stereo not drawn)
**A:** 8.65

Next item in the queue.
**Q:** Item O=C(NC1C2CN(C(=O)c3ccccc3)CC21)C(=O)c1c[nH]c2c(-c3cccnc3)ncc(F)c12 (stereo not drawn) has what recorded Therapeutic Index (CC50/IC50)?
**A:** 6.63
